FYI, the data here is from the supplement of paper PMC12042874.

- ASSAY_PROTOCOL: amyloid nucleation score (Sup35N fusion, yeast selection) (log enrichment); library NNK2; higher = more nucleation; inactive = no reads after selection;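 further: zero at mode of non-aggregating sequences after 7 days selection at 30°C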
MEASUREMENT_TYPE: amyloid nucleation score
Hey, just send me the number, nothing else.

Below are worked cases with known answers.
> print(dat)
              substance          measurement.type  value
1  FSTQGTPSSSLDWLNRLTVW  amyloid nucleation score  0.102
2       PIGLYRSMATQVNCC  amyloid nucleation score   3.71

Need amyloid nucleation score, item `WTKATPH` 0.12

Lookup `LSSPDVPNIHAALRTRTGWA` -0.328

Same for `HDQGSTMFCGRNAATLSQCW` 1.54

Then `LVSLVQRYLDHRPDNKM` ? -0.05

Entry to check: `SQWSCVRTSFGPPMYKWFDL` 5.66

Try the substance `KMDRDS` -0.125

What do you have for `YFKMSFCSFWL` ? 1.91

Another substance to check: `AWGGSRNRMYFYHSPVRFFE` 4.5

Then what about the substance `DISVLSLQYMS` ? -0.105

Param item: `VDTRRMARKS` 1.28

And the next one, `VLSNYGNYISDWQLQLRLT` ? -0.149

Input `LMCVLTIL` 1.25

Same read-out for `NCDVGYLCLEKFNIPRRSVL` ? -0.805

Entry to check: `QNGAALRLIGIWGNGGCK` -0.003

Cool, now `KFYVCCATCGCDKINELPVT` 8.09

Also `AITGGFSAFIRYYGVMYDVG` ? -0.736

Okay, and `DDWEVRN` ? 0.231

Lookup `AHPMEQCKIL` 0.545

Cool, now `LCENWSSLFITMKPYDFSFP` -0.43

Try the substance `CLNQSLRNTSWKHMAEPKKR` 3.82

Then `LRSDESRYPAFHRESSVRSR` ? 0.377

Please give the result for `IRWSVGSGKIRGSFLLLMDL` too. -0.432

Repeat for the following substance: `LVKMTLGCATSMLRCLMLSV` 0.457

# iterate: `KFYYVTGDATLNRDLWGSRA` -0.79

====

- ASSAY_PROTOCOL: amyloid nucleation score (Sup35N fusion, yeast selection) (log enrichment); library NNK2; higher = more nucleation; inactive = no reads after selection
Threshold rule: amyloid nucleation score greater than or equal to 4 is class 1; below that, class 0.

// below: answered sequences
> print(dat)
       polymer.sequence  category
1  IMCRETRLYMGMFVFDQLPQ   class 1
2   LTSNTNSRMLRCSIMVQQS   class 0
3              GMKSIDVL   class 0

Turning to the following sequence.
Identify whether the reported amyloid nucleation score of the following sequence is 4 or greater: `LNGLLTIRADVASKSIRLMH` class 0

====

- ASSAY_PROTOCOL: amyloid nucleation score (Sup35N fusion, yeast selection) (log enrichment); library NNK1; higher = more nucleation; inactive = no reads after selection
amyloid nucleation score: recorded values
Simply state the number, no unit and no words.

amyloid nucleation score for `CISLTCVVYGSML` ? 7.21

Follow-up item: `SYGNVWYIMYHRLKDTGWYM` 1.4

How about `HLYMDSSILRLVEYTWCFKV` ? 0.085

Proceed to `YMWFMNRSILIIAELFVVFT` -0.287

Would you kindly repeat that for `RGLYFNALSR` ? -0.167
